Entry source: the supplement of paper PMC10724198

Tested on: Saccharomyces cerevisiae
Assay: protein stability index of tFT-peptide fusion (C-terminal peptide) (PSI (0-1 scale)); higher = more stable (slower turnover)
Details: genetic background: wild type; temperature: 30 C
Recorded measurements of protein stability index, one per entry
Lab note: jot the number down without any unit.

Please review the entries below; each comes with its answer.
TALSRLFECFLS : 0.343
FAVHHLRYILLV : 0.0847
VVLAFFFWFFVG : 0.265

Kindly review the next sequence as well.
q: I'd like to know its protein stability index. The sequence in question is ALFLYNCVVVTD
a: 0.143

----------
Recorded measurements of protein stability index, one per entry
System: Saccharomyces cerevisiae
Test: protein stability index of tFT-peptide fusion (C-terminal peptide) (PSI (0-1 scale)); higher = more stable (slower turnover)
Settings: genetic background: wild type; temperature: 30 C
Lab note: jot the number down without any unit.

Please review the entries below; each comes with its answer.
YSLYVHPPNLYQ : 0.66
SRVGAGVVRGVG : 0.488
RKPTSFFSRIVN : 0.611

q: I'd like to know its protein stability index. The sequence in question is SPLPPARSVPPP
a: 0.646

q: I'd like to know its protein stability index. The sequence in question is LPPLPHLLSLYL
a: 0.658

q: I'd like to know its protein stability index. The sequence in question is KGKRMSRLYSCG
a: 0.667

q: I'd like to know its protein stability index. The sequence in question is PPGLLPPCLLVV
a: 0.39

q: I'd like to know its protein stability index. The sequence in question is KNSTKHIKNEKN
a: 0.774

----------
Recorded measurements of protein stability index, one per entry
System: Saccharomyces cerevisiae
Test: protein stability index of tFT-peptide fusion (C-terminal peptide) (PSI (0-1 scale)); higher = more stable (slower turnover)
Details: genetic background: wild type; temperature: 30 C
Lab note: jot the number down without any unit.

CGLDGKIVIYTI [ARC40 C-terminal 12 aa] : 0.67
DMEMEAIAAERD [HMF1 C-terminal 12 aa] : 0.706

q: I'd like to know its protein stability index. The sequence in question is KGLFWDPACVIA [MFA2 C-terminal 12 aa]
a: 0.728

q: I'd like to know its protein stability index. The sequence in question is ECYLITILWLHK [TDA2 C-terminal 12 aa]
a: 0.289

q: I'd like to know its protein stability index. The sequence in question is LDLWRDFLNQAN [IDS2 C-terminal 12 aa]
a: 0.629

q: I'd like to know its protein stability index. The sequence in question is PIICASVTFLPT [YAL056C-A C-terminal 12 aa]
a: 0.629

q: I'd like to know its protein stability index. The sequence in question is QIVEEWIVSTEA [CLB4 C-terminal 12 aa]
a: 0.63

q: I'd like to know its protein stability index. The sequence in question is NVGNNEETLDDH [RAD34 C-terminal 12 aa]
a: 0.701

q: I'd like to know its protein stability index. The sequence in question is YVRFYRGKLNNP [YOL036W C-terminal 12 aa]
a: 0.7

q: I'd like to know its protein stability index. The sequence in question is AKEWDLEDPKSM [TAF9 C-terminal 12 aa]
a: 0.726

----------
System: Saccharomyces cerevisiae
Assay: protein stability index of tFT-peptide fusion (C-terminal peptide) (PSI (0-1 scale)); higher = more stable (slower turnover)
Details: genetic background: wild type; temperature: 37 C
measuredEndpoint: protein stability index
Lab note: jot the number down without any unit.

q: I'd like to know its protein stability index. The sequence in question is PVLYSFSLWIHL
a: 0.389

----------
Recorded measurements of protein stability index, one per entry
Test system: Saccharomyces cerevisiae
Test: protein stability index of tFT-peptide fusion in wild type (PSI (0-1 scale)); higher = more stable (slower turnover)
Conditions: genetic background: wild type

Please review the entries below; each comes with its answer.
KKHKKGQKYKIN : 0.199
RSLRVLLPLYFRK : 0.293
PDKRNHLMKLLN : 0.089
LVVYLSCRACIN : 0.0228
CLVSLCILLFFR : 0.23
FSMRWTFTYWVN : 0.0917
LKILRQKMAHQN : 0.178
LKKLRQKMNHQN : 0.235

q: I'd like to know its protein stability index. The sequence in question is VRGAVGEWRLVG
a: 0.182

q: I'd like to know its protein stability index. The sequence in question is CTSCWYKFRTNN
a: 0.168

q: I'd like to know its protein stability index. The sequence in question is VRGATGGWRLVG
a: 0.188

q: I'd like to know its protein stability index. The sequence in question is RVTRLPAIYFRI
a: 0.217

q: I'd like to know its protein stability index. The sequence in question is PFLAASFWRVVG
a: 0.154

q: I'd like to know its protein stability index. The sequence in question is LKILRQKMPHQN
a: 0.681

q: I'd like to know its protein stability index. The sequence in question is FSMRWTFRDWVN
a: 0.595

q: I'd like to know its protein stability index. The sequence in question is GLYMCMVGCWFR
a: 0.25

q: I'd like to know its protein stability index. The sequence in question is PDKRNHLIDLLN
a: 0.591

q: I'd like to know its protein stability index. The sequence in question is RVTRLIAIYFRI
a: 0.168

q: I'd like to know its protein stability index. The sequence in question is MSLAASFWRVVG
a: 0.124

q: I'd like to know its protein stability index. The sequence in question is CLVMLPILLFFR
a: 0.0682

q: I'd like to know its protein stability index. The sequence in question is LVVYLSCVACTN
a: 0.0171

q: I'd like to know its protein stability index. The sequence in question is GLYMCSVGCWFW
a: 0.333

q: I'd like to know its protein stability index. The sequence in question is RLIQDLPVQFLN
a: 0.14

q: I'd like to know its protein stability index. The sequence in question is RVTCLDAIYFRI
a: 0.477

q: I'd like to know its protein stability index. The sequence in question is RITLPMCPLLLR
a: 0.296

q: I'd like to know its protein stability index. The sequence in question is PDKRNHLCKLLN
a: 0.131

----------
Recorded measurements of protein stability index, one per entry
System: Saccharomyces cerevisiae
Experiment: protein stability index of tFT-peptide fusion (C-terminal peptide) (PSI (0-1 scale)); higher = more stable (slower turnover)
Details: genetic background: wild type; temperature: 30 C

Please review the entries below; each comes with its answer.
GYLVPLPSSGSS : 0.661
RYPSRGQFGPSP : 0.691
MCVCLLVRVVPS : 0.297

q: I'd like to know its protein stability index. The sequence in question is SLVPCFLSFLYP
a: 0.575

q: I'd like to know its protein stability index. The sequence in question is IISICLYFLVRC
a: 0.299

q: I'd like to know its protein stability index. The sequence in question is FLRVVGFVCRWG
a: 0.679

q: I'd like to know its protein stability index. The sequence in question is DFPGDIILRLIA
a: 0.207

q: I'd like to know its protein stability index. The sequence in question is GVLGCNDGSVVE
a: 0.663

q: I'd like to know its protein stability index. The sequence in question is HSGAPFPPDSPR
a: 0.783

q: I'd like to know its protein stability index. The sequence in question is GWSCRGVGGGLG
a: 0.708

q: I'd like to know its protein stability index. The sequence in question is CRFYIRITRRYS
a: 0.21

q: I'd like to know its protein stability index. The sequence in question is RRGRGGGRRVDA
a: 0.731

----------
Recorded measurements of protein stability index, one per entry
Test system: Saccharomyces cerevisiae
Test: protein stability index of tFT-peptide fusion (C-terminal peptide) (PSI (0-1 scale)); higher = more stable (slower turnover)
Settings: genetic background: das1 deletion; temperature: 30 C
Lab note: jot the number down without any unit.

Please review the entries below; each comes with its answer.
IQVVKSKVLNIE [YDR248C C-terminal 12 aa] : 0.691
SAITKNLLDDFV [RAV1 C-terminal 12 aa] : 0.735
FVKDEIHKDILD [PEX21 C-terminal 12 aa] : 0.7
PKALFQSRDQEH [SIC1 C-terminal 12 aa] : 0.724
ADDDIFVNGFLR [YHL002C-A C-terminal 12 aa] : 0.719
GEDPYMDLMKEF [TPK3 C-terminal 12 aa] : 0.745
RRVKSLKTSKKH [PAL2 C-terminal 12 aa] : 0.72
LCHSSHIPETLK [MSN1 C-terminal 12 aa] : 0.719
SSVKNSVEMTDF [TDA11 C-terminal 12 aa] : 0.71
KGLQTVVVEEDA [RPL31A C-terminal 12 aa] : 0.689

q: I'd like to know its protein stability index. The sequence in question is TYSTLINIDVSL [NIC96 C-terminal 12 aa]
a: 0.702
